Hi there, I'd appreciate the recorded kf (S to S*) for every entry that follows.
# TESTED_TARGET: T1, NativeRPtag(large)_with_Tags_and_Cys (Thermoanaerobacter tengcongensis)
# T1 construct: Unlabeled in anisotropy assays; coupled through the engineered N-terminal Cys to SulfoLink agarose or maleimide plates in column, pull-down and ELISA assays
# T1 chain: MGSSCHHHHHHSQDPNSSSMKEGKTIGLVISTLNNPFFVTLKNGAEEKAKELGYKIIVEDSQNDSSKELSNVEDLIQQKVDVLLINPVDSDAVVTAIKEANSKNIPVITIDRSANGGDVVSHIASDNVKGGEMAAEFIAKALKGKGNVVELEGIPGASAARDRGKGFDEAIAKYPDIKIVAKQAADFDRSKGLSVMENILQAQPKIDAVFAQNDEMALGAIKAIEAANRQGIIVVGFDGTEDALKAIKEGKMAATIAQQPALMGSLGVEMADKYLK
# METHOD_DESCRIPTION: fluorescence anisotropy, association kinetics
No end group written: not given here. *: point of attachment. RhodamineB = CCN(CC)c1ccc2c(-c3ccccc3C(=O)*)c3ccc(=[N+](CC)CC)cc-3oc2c1
Give bare numbers, in min⁻¹.

Check out these entries, answers already filled in.
- BINDER: "RhodamineB-GEKIPNFIPAELKLITKEN [RPtag(small) Cd2]"
  UNIT_ANNOTATION: "min⁻¹"
  MEAS_VALUE: 0.15
- BINDER: "RhodamineB-GEKAPNFIPAELKLITKENVQ [RPtag(small) i4a]"
  UNIT_ANNOTATION: "min⁻¹"
  MEAS_VALUE: 0.086
- BINDER: "RhodamineB-KIPNFIPAELKLITKE [RPtag(small) Nd2, Cd3]"
  UNIT_ANNOTATION: "min⁻¹"
  MEAS_VALUE: 0.081
- BINDER: "RhodamineB-KIANFIPAELKLITKANAA [RPtag(small) Nd2, p5a, e18a, v20a, q21a]"
  UNIT_ANNOTATION: "min⁻¹"
  MEAS_VALUE: 0.05
- BINDER: "RhodamineB-GEKIPNFIPAELKAITKENVQ [RPtag(small) l14a]"
  UNIT_ANNOTATION: "min⁻¹"
  MEAS_VALUE: 0.075

We now examine a further binder.
# get_value(readout='kf (S to S*)', item= RhodamineB-GEKIPNFIPAALKLITKENVQ [RPtag(small) e11a] )
0.08
